Target: cKit (D816V) (h) (Homo sapiens, UniProt P10721, D816V)
Sequence (P10721 26-976 D816V): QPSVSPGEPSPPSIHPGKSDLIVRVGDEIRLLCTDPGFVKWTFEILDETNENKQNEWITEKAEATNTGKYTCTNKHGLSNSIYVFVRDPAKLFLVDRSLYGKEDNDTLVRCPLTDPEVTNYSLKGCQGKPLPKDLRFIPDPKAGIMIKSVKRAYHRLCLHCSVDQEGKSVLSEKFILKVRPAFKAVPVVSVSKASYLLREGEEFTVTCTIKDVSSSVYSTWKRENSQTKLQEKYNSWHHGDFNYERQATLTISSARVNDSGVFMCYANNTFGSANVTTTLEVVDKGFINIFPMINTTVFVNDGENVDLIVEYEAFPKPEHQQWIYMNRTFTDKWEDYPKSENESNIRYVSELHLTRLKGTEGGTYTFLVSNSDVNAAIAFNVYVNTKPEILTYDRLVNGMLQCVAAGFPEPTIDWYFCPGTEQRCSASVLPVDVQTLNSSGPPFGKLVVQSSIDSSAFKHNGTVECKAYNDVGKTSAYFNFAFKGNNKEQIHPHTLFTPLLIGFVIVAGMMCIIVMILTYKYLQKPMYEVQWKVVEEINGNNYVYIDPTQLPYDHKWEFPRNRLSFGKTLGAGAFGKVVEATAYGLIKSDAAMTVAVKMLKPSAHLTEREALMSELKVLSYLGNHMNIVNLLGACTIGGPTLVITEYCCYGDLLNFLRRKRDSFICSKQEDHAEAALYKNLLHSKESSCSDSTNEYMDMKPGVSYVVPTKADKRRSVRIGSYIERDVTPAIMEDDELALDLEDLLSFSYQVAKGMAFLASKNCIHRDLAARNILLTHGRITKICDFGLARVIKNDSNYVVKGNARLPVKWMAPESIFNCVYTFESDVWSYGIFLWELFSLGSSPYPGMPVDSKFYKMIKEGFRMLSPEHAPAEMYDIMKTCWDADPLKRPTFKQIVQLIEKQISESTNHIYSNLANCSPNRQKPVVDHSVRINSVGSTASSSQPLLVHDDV
Assay: Kinase IC50 (Eurofins KinaseProfiler)
result_type: IC50

Quote IC50 reported for Cc1cc(Oc2cc(NC(=O)C3CC3)ncn2)ccc1NC(=O)Nc1ccc(Cl)c(C(F)(F)F)c1 please.
> 10 µM

====

Target: IR (h) (Homo sapiens, UniProt P06213)
Sequence (P06213 28-1382): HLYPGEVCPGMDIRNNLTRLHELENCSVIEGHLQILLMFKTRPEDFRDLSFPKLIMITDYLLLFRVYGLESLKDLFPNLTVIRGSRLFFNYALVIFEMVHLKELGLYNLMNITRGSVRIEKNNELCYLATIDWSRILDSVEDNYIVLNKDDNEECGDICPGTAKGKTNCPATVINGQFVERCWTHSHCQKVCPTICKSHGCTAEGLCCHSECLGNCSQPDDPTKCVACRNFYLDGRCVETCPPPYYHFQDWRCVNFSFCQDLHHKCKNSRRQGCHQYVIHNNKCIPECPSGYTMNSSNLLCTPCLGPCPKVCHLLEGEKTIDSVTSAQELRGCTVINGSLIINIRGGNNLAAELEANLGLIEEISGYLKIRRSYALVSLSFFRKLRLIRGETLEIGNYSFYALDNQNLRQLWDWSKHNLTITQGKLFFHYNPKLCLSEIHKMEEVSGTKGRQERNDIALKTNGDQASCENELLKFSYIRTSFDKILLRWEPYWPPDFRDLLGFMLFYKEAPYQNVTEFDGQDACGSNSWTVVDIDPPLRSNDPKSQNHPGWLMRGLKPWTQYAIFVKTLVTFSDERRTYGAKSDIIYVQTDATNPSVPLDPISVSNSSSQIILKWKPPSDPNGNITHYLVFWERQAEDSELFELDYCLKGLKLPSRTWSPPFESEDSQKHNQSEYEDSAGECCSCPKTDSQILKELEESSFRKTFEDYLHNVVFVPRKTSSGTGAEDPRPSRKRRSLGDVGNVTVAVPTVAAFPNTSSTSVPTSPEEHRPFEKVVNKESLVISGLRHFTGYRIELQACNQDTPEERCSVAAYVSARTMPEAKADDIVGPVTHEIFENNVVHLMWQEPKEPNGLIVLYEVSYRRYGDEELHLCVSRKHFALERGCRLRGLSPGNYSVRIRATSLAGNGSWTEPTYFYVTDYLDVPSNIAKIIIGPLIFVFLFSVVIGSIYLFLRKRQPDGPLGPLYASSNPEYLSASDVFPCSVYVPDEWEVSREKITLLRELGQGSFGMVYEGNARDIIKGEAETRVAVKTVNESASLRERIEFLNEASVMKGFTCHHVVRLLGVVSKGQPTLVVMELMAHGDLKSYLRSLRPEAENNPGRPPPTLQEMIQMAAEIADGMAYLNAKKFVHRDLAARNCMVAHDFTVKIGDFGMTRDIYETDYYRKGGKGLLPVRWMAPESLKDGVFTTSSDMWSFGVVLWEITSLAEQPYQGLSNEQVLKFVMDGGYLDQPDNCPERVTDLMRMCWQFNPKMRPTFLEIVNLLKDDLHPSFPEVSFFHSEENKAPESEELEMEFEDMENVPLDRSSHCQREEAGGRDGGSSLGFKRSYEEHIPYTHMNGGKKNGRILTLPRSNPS
result_type: IC50

Quote IC50 reported for Cc1cc(Oc2cc(NC(=O)C3CC3)ncn2)ccc1NC(=O)Nc1ccc(Cl)c(C(F)(F)F)c1 please.
> 10 µM

====

Biological target: SAPK2a (h) (Homo sapiens)
Sequence (Q16539 whole entry): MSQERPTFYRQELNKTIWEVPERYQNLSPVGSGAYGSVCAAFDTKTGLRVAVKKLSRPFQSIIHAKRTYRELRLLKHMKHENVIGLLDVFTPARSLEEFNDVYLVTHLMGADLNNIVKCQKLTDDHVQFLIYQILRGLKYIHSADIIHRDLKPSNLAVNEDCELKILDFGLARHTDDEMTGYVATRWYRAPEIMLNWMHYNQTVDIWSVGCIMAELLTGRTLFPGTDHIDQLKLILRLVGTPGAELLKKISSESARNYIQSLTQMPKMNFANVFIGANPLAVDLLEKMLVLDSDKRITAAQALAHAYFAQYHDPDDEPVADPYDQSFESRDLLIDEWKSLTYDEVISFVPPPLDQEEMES
result_type: pIC50
Value format note: pIC50 is -log10 of concentration (mol/L); just state the number.

Quote pIC50 reported for Cc1cc(Oc2cc(NC(=O)C3CC3)ncn2)ccc1NC(=O)Nc1ccc(Cl)c(C(F)(F)F)c1 please.
6.74

Entry source: patent US20220088016A1
